B1: glmS ribozyme (parent)
chain: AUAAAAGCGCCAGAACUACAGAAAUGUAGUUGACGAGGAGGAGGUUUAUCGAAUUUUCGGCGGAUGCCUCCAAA

# Variants of: B1
# PROTOCOL: self-cleavage kobs at 160 uM GlcN6P; higher = faster cleavage; RNA array
# CONDITION SET: with glucosamine-6-phosphate
Variants at the floor of the assay were thinned out.
EXPERIMENTAL READOUT: self-cleavage kobs at 160 uM GlcN6P

self-cleavage kobs at 160 uM GlcN6P for U31C A48G ?
< 1e-05 s⁻¹

Now consider A6U G32U .
< 1e-05 s⁻¹

Please do the same for C8G C58A C67A as well.
< 1e-05 s⁻¹

Another variant to look at: G13C U47C
< 1e-05 s⁻¹

Cool, now G32U A53G
5.42e-05 s⁻¹

Try the variant U31C G41A G59U
< 1e-05 s⁻¹

Same for G41A C70U
0.0046 s⁻¹

// same read-out, input: C58U C61A
6.42e-05 s⁻¹

Note, next up: G38C A52G
< 1e-05 s⁻¹

// repeat for G13A U46G A48G G59A and report
< 1e-05 s⁻¹

Subsequent entry: A39U C71G
0.000107 s⁻¹

How about this variant: G9U G13C
< 1e-05 s⁻¹

Continue with G7A C71G
< 1e-05 s⁻¹

Can you check G38A U55G next?
< 1e-05 s⁻¹

Next entry: A14U G60U
< 1e-05 s⁻¹

C34A U56A , same question.
< 1e-05 s⁻¹

Thanks! And G35U C71U ?
< 1e-05 s⁻¹

And the next one, U54A U56G ?
0.000857 s⁻¹

Record: G37C U56G
< 1e-05 s⁻¹

Would you mind doing U54A U69A as well?
0.000107 s⁻¹

Also G37U A48U ?
< 1e-05 s⁻¹

Could you do the same for U55G C58A , please?
2.76e-05 s⁻¹

// repeat for U31C G32U and report
3.53e-05 s⁻¹

Next: G41U G60C
< 1e-05 s⁻¹

Query A1U U2G A3G A5U next
0.00116 s⁻¹

What would you report for A39G G66A ?
0.00437 s⁻¹

Entry to check: A6C A42C
< 1e-05 s⁻¹

Also A12U U54G ?
0.00452 s⁻¹

Let us now turn to U55C C58A
4.03e-05 s⁻¹

Next: U45G U56A
0.000299 s⁻¹

Likewise for A48U U54G ?
6.29e-05 s⁻¹

Do the same for C10G G37A please
< 1e-05 s⁻¹

Now the variant A14C G29A U56C U57G
< 1e-05 s⁻¹

Then G32U G43C ?
< 1e-05 s⁻¹

Would you mind doing G32U A42G as well?
4.61e-05 s⁻¹

Another: A39C U45A
0.000456 s⁻¹

Another: A12G A14C A48U
< 1e-05 s⁻¹

Now give it for C8U G29C too.
< 1e-05 s⁻¹

What do we get for A6G G38A G43U A48U A52C U69G ?
< 1e-05 s⁻¹

Again, but for A42C G59C
< 1e-05 s⁻¹

What do you have for G60C A64G ?
< 1e-05 s⁻¹

Another: A33C G37A G63C
< 1e-05 s⁻¹

Also need A33C G51U , thanks.
< 1e-05 s⁻¹

Please answer likewise for C11U A14G
0.000583 s⁻¹

Further, for G32U A42C ?
< 1e-05 s⁻¹

U45C U46C , same question.
0.000106 s⁻¹
